- System: HL-60
- Assay Protocol: High-throughput cell death assay I, HL-60
- Type: cell-based
- Run Conditions: HL-60, leukemia (human); read-out: diethyl TPMP IC50
Parameter Measured: IC50 (µM)
Dear colleague, please return just the value in µM, with no unit written.

Exercise: Lab request: please report IC50 under test system HL-60 for CCOP(=O)(OCC)C(c1ccccc1)(c1ccccc1)c1ccccc1 [CX5]
Key: 13.2

###

- System: NCI-H226
- Assay Protocol: High-throughput cell death assay I, NCI-H226
- Type: cell-based
- Run Conditions: NCI-H226, lung (human); read-out: diethyl TPMP IC50
Parameter Measured: IC50 (µM)
Lab book: enter the figure in µM, no units written.

Exercise: So what's the measured IC50 for this one? CCOP(=O)(OCC)C(c1ccccc1)(c1ccccc1)c1ccccc1
Key: 6.56

###

- Tested on: CRL-1782
- Assay Protocol: High-throughput cell death assay I, CRL-1782
- Assay type: cell-based
- Run Conditions: CRL-1782, melanoma (human); read-out: diethyl TPMP IC50
Parameter Measured: pIC50
Quick note: pIC50 means taking -log10 of the concentration in moles per liter.

Exercise: Any idea what its pIC50 is? The compound is CCOP(=O)(OCC)C(c1ccccc1)(c1ccccc1)c1ccccc1
Key: 5.85
